system: SF-539 CNS; experiment: NCI-60 one-dose screen, 48 h (100 = growth as untreated, 0 = no growth, -100 = all killed); details: 10 µM unless noted
This is part of a sample that, as a whole, favours compounds with a hit. Of some 83,000 tested, about 20% had one in any assay.
metric_name: growth (%)
Report only the number, with the unit % understood.

COc1cc(/C=C2/C(=O)Nc3ccc(Cl)cc32)ccc1OCc1ccc(Cl)cc1 = 92.2
C[C@@H]1OCC2(CCN(c3cnc(C(=O)Nc4cc(F)cc5cccnc45)cn3)CC2)[C@@H]1N = 71.7
O=C(Nc1cc(C(F)(F)F)cc(C(F)(F)F)c1)Nc1ccc2oc(=O)ccc2c1 = 21.4
NS(=O)(=O)c1cccc(Nc2nc(SCC(=O)c3ccc(Cl)cc3)nc3c2CCC3)c1 = 88.3
CC1(C)CC[C@]23CC[C@]4(C)[C@H](CC[C@@H]5[C@@]6(C)CC[C@H](N)C(C)(C)[C@@H]6CC[C@]54C)[C@H]2[C@H]1OC3 = 74.1
O=C(CCCCCCN1CC(=O)N2[C@@H](c3ccc(Cl)s3)c3[nH]c4ccccc4c3C[C@H]2C1=O)NO = 40.9

For this molecule ( `COc1ccc2c(c1)c(-c1nnc(N)nc1-c1c[nH]c3ccc(F)cc13)cn2C` ), measured growth is 40.5

# growth (molecule: `COc1ccc(C(=NNS(=O)(=O)c2ccc(C)cc2)c2ccccc2)cc1OC` ) is 105

get_value(item= `NC(=O)n1c(=O)n(-c2cccc(C(F)(F)F)c2)c(=O)c2cc(-c3ccc(F)cc3F)ccc21` , readout=growth) returns 15.5

growth reported for this molecule CCOC(=O)C1=C(C)NC(C)=C(C(=O)OC(C)C)C1c1cccc(C#N)c1 (stereo unspecified) : 104

Entry under test: `COC(=O)[C@@H](Cc1c[nH]c2ccccc12)NC(=O)CCCCOc1cc(O)c2c(=O)cc(-c3ccccc3)oc2c1` . Its growth was 90.3
